# TARGET_UNDER_TEST: Hexose transporter 1 (Plasmodium falciparum) (UniProt O97467)
# ASSAY_INFO: ST_JUDE_LEISH: Cytotoxicity at 2uM final concentration against transgenic Leishmania Mexicana promastigotes LmPfHT that are glucose transport deficient and complemented with the Plasmodium falciparum hexose transporter. Activity is measured by DNA content using SYBR green in vitro
# Type: functional
PROPERTY_LABEL: inhibition (%)
Only the number, expressed in %, is required.

{"columns": ["MOLECULE", "RESULT_VALUE"],
 "data": [
  ["CN(C)c1ccc(NC(=O)Nc2ccnc3ccccc23)cc1Br", 8.16],
  ["COc1cc(NC(=O)c2sc(-c3ccc(Cl)cc3)cc2NC(=O)c2cccnc2)ccc1OCCN1CCCC1", 4.76],
  ["COc1cc(C)nc2ccc(NC(=O)c3cc(C(F)(F)F)cc(C(F)(F)F)c3)cc12", 12.8],
  ["c1cncc(-c2cc(N3CCc4ccccc4C3)nc(-c3ccncc3)n2)c1", 7.89],
  ["CC1(C)CCCC(=Cc2ccc(Br)cc2)C1(O)Cn1ccnc1 (stereo not given)", 20.9]
]}

molecule `FC(F)(F)c1cccc(CNCCCCCNCc2ccc(Cl)cc2)c1` , inhibition observed: 1.16

molecule COc1cc2nc(N3CC(C)N(C(=O)Cc4ccc(-c5ccccc5)cc4)C(C)C3)nc(N)c2cc1OC (stereo not given) , inhibition observed: 5.22

molecule `CCOC(=O)c1nc(-c2cccnc2)[nH]c1NC(=S)NCc1ccccc1` , inhibition observed: 0.92

---

# TARGET_UNDER_TEST: Glucose transporter (Leishmania mexicana) (UniProt O61059)
# ASSAY_INFO: ST_JUDE_LEISH: Cytotoxicity at 2uM final concentration against transgenic Leishmania Mexicana promastigotes LmGT2 that are glucose transport deficient and complemented with the L. Mexicana glucose transporter 2. Activity is measured by DNA content using SYBR green in vitro
# Type: functional
PROPERTY_LABEL: inhibition (%)
Only the number, expressed in %, is required.

{"columns": ["STRUCTURE", "TARGET_UNDER_TEST", "QUANTITY_UNIT", "inhibition"],
 "data": [
  ["O=c1cc(NCCCNCc2cc3ccccc3s2)[nH]c2ccccc12", "Glucose transporter (Leishmania mexicana) (UniProt O61059)", "%", 3.82],
  ["c1cncc(CCNCc2ccc(-c3ccc(CNC4Cc5ccccc5C4)cc3)cc2)c1", "Glucose transporter (Leishmania mexicana) (UniProt O61059)", "%", 3.87]
]}

compound `CCN(CC)Cc1cccc(-c2cc3c(-c4ccc(C(=O)O)c(C(C)C)c4)ccnc3[nH]2)c1OC` , inhibition observed: 7.3

compound `O=C(C=Cc1cn(-c2ccccc2)nc1-c1ccccc1)N1CCN(c2ccncc2)CC1` , inhibition observed: 4.62

compound `Cc1cc(NC2CCCC2)nc(Nc2ccccc2C)n1` , inhibition observed: 4.09

---

# TARGET_UNDER_TEST: Glucose transporter (Leishmania mexicana) (UniProt O61059)
# ASSAY_INFO: ST_JUDE_LEISH: Cytotoxicity at 2uM final concentration against transgenic Leishmania Mexicana promastigotes LmGT2 that are glucose transport deficient and complemented with the L. Mexicana glucose transporter 2. Activity is measured by DNA content using SYBR green in vitro
# Type: functional
Record TRUE whenever inhibition is at 10% or higher; record FALSE when lower.

Solved entries (count: 3):
{"columns": ["STRUCTURE", "GROUP"],
 "data": [
  ["COc1ccc2nc(-c3cc(-c4ccc(NC(=O)CN5CCOCC5)cc4)cnc3N)[nH]c2c1", "TRUE"],
  ["Cc1csc(-c2nonc2NC(=O)COc2ccccc2C(C)C)n1", "FALSE"],
  ["COc1ccc(NC(=O)[C@H](Cc2ccccc2)Nc2cc(C)nc(NCCc3ccccc3OC)n2)cc1", "FALSE"]
]}

Ask | Check if inhibition >= 10% (inclusive). Item: `COc1ccc(CCNCCCCNCCc2ccc(OC)c3ccccc23)c2ccccc12`
Reply | TRUE

Ask | Check if inhibition >= 10% (inclusive). Item: `Cc1ccc(-c2nc3cc(C(=O)NC4CCN(Cc5ccccc5)CC4)ccc3[nH]2)cc1`
Reply | FALSE

---

# TARGET_UNDER_TEST: Glucose transporter (Leishmania mexicana) (UniProt O61059)
# ASSAY_INFO: ST_JUDE_LEISH: Cytotoxicity at 2uM final concentration against transgenic Leishmania Mexicana promastigotes LmGT2 that are glucose transport deficient and complemented with the L. Mexicana glucose transporter 2. Activity is measured by DNA content using SYBR green in vitro
# Type: functional
PROPERTY_LABEL: inhibition (%)
Only the number, expressed in %, is required.

{"columns": ["COMPOUND", "PROPERTY_LABEL", "QUANTITY_UNIT", "RESULT_VALUE"],
 "data": [
  ["CN1CCN(CCCSc2ccc3c(c2)ncn3-c2cc(OCc3ccccc3C(F)(F)F)c(C(N)=O)s2)CC1", "inhibition", "%", 0.97],
  ["COc1ccccc1N(C)CCNc1cc(C)nc(Nc2ccc(C)cc2)n1", "inhibition", "%", 1.83],
  ["Cc1cc(Nc2cc(Cl)cc(Cl)c2)nc(N)n1", "inhibition", "%", 6.94],
  ["O=C(c1cccc(-c2ccc(-c3nc4cc(C(F)(F)F)ccc4[nH]3)cc2)c1)N1CCCCC1CN1CCC(O)C1 (stereo not given)", "inhibition", "%", 2.26]
]}

compound `COc1ccc(CCN(C)CCOc2ccc(NC(=O)c3cccc4cc5ccccc5nc34)cc2)cc1OC` , inhibition observed: 1.88

---

The following compounds are listed with their measured inhibition values.
# TARGET_UNDER_TEST: Hexose transporter 1 (Plasmodium falciparum) (UniProt O97467)
# ASSAY_INFO: ST_JUDE_LEISH: Cytotoxicity at 2uM final concentration against transgenic Leishmania Mexicana promastigotes LmPfHT that are glucose transport deficient and complemented with the Plasmodium falciparum hexose transporter. Activity is measured by DNA content using SYBR green in vitro
# Format: functional
Only the number, expressed in %, is required.

These recorded examples may help you get a feel for the data.
{"columns": ["COMPOUND", "RESULT_VALUE"],
 "data": [
  ["Cc1ccc2c(-c3ccc([N+](=O)[O-])o3)cc(C)nc2c1", 46.4],
  ["O=C(Nc1ccc(Cl)cc1F)N[C@H]1CCN(CCCCCNC(=O)C2CC2c2ccc(Cl)c(Cl)c2)C1 (stereo not given in full)", 8.26],
  ["c1ccc(CN2CCC(NCc3ccc(-c4ccc(CNC5CCCC5)cc4)cc3)CC2)cc1", 1.09],
  ["Cc1ccc2[nH]c(C)cc(=NN=Cc3ccccc3Cl)c2c1", 3.39]
]}

Please turn your attention to the following entry.
Given the compound `CCCCCCNc1cc(C)nc(NC(=N)Nc2cccc(C(F)(F)F)c2)n1` and test system Hexose transporter 1 (Plasmodium falciparum) (UniProt O97467), the measured inhibition is 3.48

---

# TARGET_UNDER_TEST: Solute carrier family 2, facilitated glucose transporter member 1 (Homo sapiens)
# ASSAY_INFO: ST_JUDE_LEISH: Cytotoxicity at 2uM final concentration against transgenic Leishmania Mexicana promastigotes LmGLUT1 that are glucose transport deficient and complemented with the human glucose transporter GLUT1. Activity is measured by DNA content using SYBR green in vitro
# Format: functional
PROPERTY_LABEL: inhibition (%)
Only the number, expressed in %, is required.

{"columns": ["MOLECULE", "RESULT_VALUE"],
 "data": [
  ["CCCOc1ccc(C(F)(F)F)cc1NC(=O)c1nc2nc(C)cc(C)n2n1", 6.01]
]}

Please turn your attention to the following entry.
Given the molecule `Cc1ccc2nc(N(CCCn3ccnc3)C(=O)C=Cc3cccs3)sc2c1` and test system Solute carrier family 2, facilitated glucose transporter member 1 (Homo sapiens), the measured inhibition is 0.75

---

The following compounds are listed with their measured inhibition values.
# TARGET_UNDER_TEST: Hexose transporter 1 (Plasmodium falciparum) (UniProt O97467)
# ASSAY_INFO: ST_JUDE_LEISH: Cytotoxicity at 2uM final concentration against transgenic Leishmania Mexicana promastigotes LmPfHT that are glucose transport deficient and complemented with the Plasmodium falciparum hexose transporter. Activity is measured by DNA content using SYBR green in vitro
# Format: functional
# number then unit; no other words

{"columns": ["COMPOUND", "RESULT_VALUE"],
 "data": [
  ["CC1(C)N=C(N)N=C(N)N1O", "1.38%"]
]}

compound `COc1ccc2ncc(C#N)c(CCN3C[C@H](CNCc4ccccc4)[C@H](O)C3)c2n1` , inhibition observed: 3.76%

compound `Cc1cc(=O)c(-c2ccc(Oc3ccc(OC(F)(F)F)cc3)cc2)c(C)[nH]1` , inhibition observed: -0.47%

compound `COc1ccc(-c2ccc(NC(=O)c3cccc(Cl)c3)cc2)cc1CN(C)CCN(C)C` , inhibition observed: 14.4%

compound `Cc1ccc2c(N/N=C/c3ccccc3[N+](=O)[O-])cc(C)nc2c1` , inhibition observed: -5.28%

compound `CN(C)CCNCc1ccc(-c2ccc3c(Nc4ccc(F)cc4Cl)ccnc3c2)o1` , inhibition observed: 6.24%

Origin of measurements: ChEMBL document CHEMBL3433997
